Target under test: recombinant HIV-1 integrase (Human immunodeficiency virus type 1 group M subtype B (isolate HXB2) (HIV-1), UniProt P04585)
Measurement protocol: Assay 4: 3dQ assay, inhibition of HIV integrase mediated 3'-processing
Assay type: biochemical
Measurement parameters: 3'-processing; 150 nM integrase, 100 nM LEDGF, 50 nM U5 LTR substrate, 2 h at 37° C.; read-out: IC50
// IC50 lookup, one value per entry
Report the figure in nM without appending any unit label.

[Q] Output IC50 of O=C1NCCCCCCNc2nc(c(O)c3ncccc23)C(=O)NCc2ccc(F)cc21 [Compound 1]
[A] 950

[Q] Output IC50 of O=C1NCCCCN2CCN(CC2)c2nc(c(O)c3ncccc23)C(=O)NCc2ccc(F)cc21 [Compound 8]
[A] 1200

[Q] Output IC50 of O=C1NCCCCCCCNc2nc(c(O)c3ncccc23)C(=O)NCc2ccc(F)cc21 [Compound 5]
[A] 1000
